The measurements presented in this section are drawn from patent US4761403A.

experimental-system: 12-lipoxygenase (Homo sapiens, UniProt P18054)
Construct: 12-lipoxygenase obtained from human platelets; from tissue; host or cells: human platelets
Sequence (P18054 1-663): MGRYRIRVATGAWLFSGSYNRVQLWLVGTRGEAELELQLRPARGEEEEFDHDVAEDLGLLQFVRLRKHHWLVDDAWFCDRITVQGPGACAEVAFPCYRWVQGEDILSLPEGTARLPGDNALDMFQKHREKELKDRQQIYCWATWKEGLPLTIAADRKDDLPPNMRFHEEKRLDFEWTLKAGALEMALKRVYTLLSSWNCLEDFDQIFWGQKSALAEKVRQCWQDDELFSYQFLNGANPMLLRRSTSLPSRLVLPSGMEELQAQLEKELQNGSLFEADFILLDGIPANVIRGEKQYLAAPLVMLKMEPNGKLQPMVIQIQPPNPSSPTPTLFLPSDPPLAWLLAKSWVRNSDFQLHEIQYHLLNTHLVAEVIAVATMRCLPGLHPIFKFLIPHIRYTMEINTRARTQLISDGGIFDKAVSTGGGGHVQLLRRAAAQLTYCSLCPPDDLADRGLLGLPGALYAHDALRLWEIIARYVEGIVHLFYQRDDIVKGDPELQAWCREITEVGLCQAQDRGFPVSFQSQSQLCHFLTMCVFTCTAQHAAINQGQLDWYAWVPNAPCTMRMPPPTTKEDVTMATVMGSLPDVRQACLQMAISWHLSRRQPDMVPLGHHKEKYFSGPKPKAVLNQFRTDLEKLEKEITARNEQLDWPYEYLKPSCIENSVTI
protocol-details: 12-lipoxygenase inhibition, enzyme obtained from human platelets
Type: biochemical
experimental-context: 10 uM; read-out: Percent Inhibition, 12-Lipoxygenase
Procedure: The compounds of this invention are potent inhibitors of 5-, 12-, and 15-lipoxygenases. […] Reaction products were separated from nonconverted substrate by thin layer chromatography and measured by liquid scintillation spectroscopy. Inhibition of 5-lipoxygenase activity was calculated as the 50% intercept from linear regression analysis of percentage inhibition versus log concentration plots. […]
Lab note: compare inhibition at 10 µM against 90%. Equal or greater, write 1.0. Smaller, write 0.0.

Example cases with answers are listed next.
O=c1ccc2c([N+](=O)[O-])cccc2n1O [Example 6, 5-Nitro-1-hydroxyquinol-2(1H)-one]    0.0
COC(=O)c1cc2ccccc2n(O)c1=O [Example 2, 3-Carbomethoxy-1-hydroxyquinol-2(1H)-one]    0.0
Cc1ccc2ccc(=O)n(O)c2c1 [Example 13, 7-Methyl-1-hydroxyquinol-2(1H)-one]    1.0
O=c1ccc2cc(Cl)ccc2n1O [Example 8, 6-Chloro-1-hydroxyquinol-2(1H)-one]    1.0

Turning now to a further record.
Problem: Exam item: decide whether the reported inhibition at 10 µM for O=c1ccc2cc(-c3ccccc3)ccc2n1O [Example 12, 6-Phenyl-1-hydroxyquinol-2(1H)-one] is at least 90%.
Solution: 1.0
